test system: Human VISTA recombinant protein (Sino Biological Inc., Cat. #13482-H08H), biotinylated (UniProt Q9H7M9 33-194, biotinylated using EZ-LINK NHS-PEG4 biotin)
Sequence (Q9H7M9 33-194): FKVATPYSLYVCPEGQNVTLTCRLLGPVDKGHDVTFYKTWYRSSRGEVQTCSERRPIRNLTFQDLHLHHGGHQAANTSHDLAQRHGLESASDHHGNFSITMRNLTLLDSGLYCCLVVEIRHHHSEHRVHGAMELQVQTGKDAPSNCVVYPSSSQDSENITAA
test summary: Octet BLI
readout kind: Kd (nM)
Enter your answer as a number in nM; do not include the unit.

**Q:** Given the entry 9F9 parental anti-VISTA antibody (VH0/VL0) (antibody, V domains shown) VH: QVQFQQSGAELARPGASVKLSCKASGYTFTGYWMQWVKQRPGQGLEWIGAIYPGDGDTRYSQKFKGKVTLTADKSSSTAYMQLSSLASEDSAVYYCARRDYGAWFAYWGQGTLVTVSA VL: DIKVTQSPSSMYASLGERVTITCKASQDINSYLSWFQQKPGKSPKTLIYRANRLVDGVPSRFSGSGSGQDYSLTISSLDYEDMGIYYCLQYDEFPYTFGGGTKLEIK , report its measured Kd.
**A:** 8.65

**Q:** Given the entry 9F9 humanized anti-VISTA antibody VH9/VL9 (antibody, V domains shown) VH: QVQFVQSGAEVKKPGSSVKVSCKASGYTFSGYWMQWVKQAPGQGLEWIGAIYPGDGDTRYSQKFKGKVTLTADESTSTAYMELSSLRSEDTAVYYCARRDYGAWFAYWGQGTLVTVSS VL: DIKVTQSPSSLSASVGDRVTITCKASQDINSYLSWYQQKPGKAPKTLIYRANRLVDGVPSRFSGSGSGQDYTFTISSLQPEDIATYYCLQYDEFPYTFGQGTKVEIK , report its measured Kd.
**A:** 37.7

**Q:** Given the entry 9F9-VH8/VL8 (antibody, V domains shown) VH: QVQFVQSGAEVKKPGASVKVSCKASGYTFTGYWMQWVKQAPGQGLEWIGAIYPGDGDTRYSQKFKGKVTLTADKSTSTAYMELSSLRSEDTAVYYCARRDYGAWFAYWGQGTLVTVSS VL: DIKVTQSPSSLSASVGDRVTITCKASQDINSYLSWYQQKPEKAPKTLIYRANRLVDGVPSRFSGSGSGTDFTLTISSLQPEDFATYYCLQYDEFPYTFGQGTKVEIK , report its measured Kd.
**A:** 36.6

**Q:** Given the entry 9F9 humanized anti-VISTA antibody VH7/VL7 (antibody, V domains shown) VH: QVQFVQSGAEVKKPGASVKVSCKASGYTFTGYWMQWVKQAPGQRLEWIGAIYPGDGDTRYSQKFKGKVTLTADTSASTAYMELSSLRSEDTAVYYCARRDYGAWFAYWGQGTLVTVSS VL: DIKVTQSPSSLSASVGDRVTITCKASQDINSYLSWYQQKPGKAPKTLIYRANRLVDGVPSRFSGSGSGQEYTLTISSLQPEDFATYYCLQYDEFPYTFGQGTKVEIK , report its measured Kd.
**A:** 56.7
